System: C57BL/6JL Lep ob/Lep ob mice
Test: Blood lipid, glucose and enzyme levels in obese mice (ob/ob)
Type: in vivo
Design: unit not given here
Details: 100 mg/kg for 26 days
MEASUREMENT KIND: GOT
// no unit string in output, number only

Reading of GOT for CC1C2=C(OC1(C)C)c1ccccc1C(=O)C2=O (stereo not shown) [Compound 3] with C57BL/6JL Lep ob/Lep ob mice: 36

----------
Tested on: C57BL/6JL Lep ob/Lep ob mice
Test: Blood lipid, glucose and enzyme levels in obese mice (ob/ob)
Type: in vivo
Set-up: unit not given here
Settings: 100 mg/kg for 26 days
Catalogue of GOT readings, one per entry.

Known results for compounds:
Just so you know, measured GOT for CC1OC2=C(C(=O)C(=O)c3ccccc32)C1(C)C (stereo not drawn) [Compound 2, Dunnione] came out at 50

Just so you know, measured GOT for CC(C)=C/C(C)=C/C1(C)CCC2=C(O1)c1ccccc1C(=O)C2=O (stereo not drawn) [Compound 14] came out at 95

Consider the record given below.
Just so you know, measured GOT for CC1CC2=C(O1)c1ccccc1C(=O)C2=O (stereo not drawn) [Compound 5] came out at 38
